Items are presented alongside their recorded Ki.
biological target: Adrenergic receptor alpha-1 (Rattus norvegicus, UniProt P15823+P23944+P43140); assay: Binding affinity towards alpha-1 adrenergic receptor in rat cortex membrane using [3H]-prazosin radioligand; format: cell membranes

{"Chem smiles": "COc1ccccc1N1CCN(CCCCn2nc(N3CCN(C(=O)c4ccco4)CC3)ccc2=O)CC1", "Ki [nM]": 180}
{"Chem smiles": "O=C(c1ccco1)N1CCN(c2cnn(CCCCCCN3CCN(c4ccccc4Cl)CC3)c(=O)c2Cl)CC1", "Ki [nM]": 5.7}
{"Chem smiles": "COc1ccccc1OCCN1CCN(c2cnn(CCCCCCCN3CCN(c4ccccc4OC)CC3)c(=O)c2Cl)CC1", "Ki [nM]": 1.4}
{"Chem smiles": "COc1ccccc1OCCN1CCN(c2ccc(=O)n(CCCN3CCN(c4ccccc4Cl)CC3)n2)CC1", "Ki [nM]": 6.8}
{"Chem smiles": "O=C(c1ccco1)N1CCN(c2ccc(=O)n(CCCCCN3CCN(c4ccccc4Cl)CC3)n2)CC1", "Ki [nM]": 13.3}
{"Chem smiles": "COc1ccccc1OCCN1CCN(c2cnn(CCN3CCN(c4ccccc4OC)CC3)c(=O)c2Cl)CC1", "Ki [nM]": 16}
{"Chem smiles": "COc1ccccc1OCCN1CCN(c2ccc(=O)n(CCCN3CCN(c4ccccc4OC)CC3)n2)CC1", "Ki [nM]": 7.3}
{"Chem smiles": "O=C(c1ccco1)N1CCN(c2cnn(CCCN3CCN(c4ccccc4Cl)CC3)c(=O)c2Cl)CC1", "Ki [nM]": 3.5}
{"Chem smiles": "COc1ccccc1OCCN1CCN(c2ccc(=O)n(CCCCCN3CCN(c4ccccc4OC)CC3)n2)CC1", "Ki [nM]": 12.9}
